molecular target: Kappa-type opioid receptor (Homo sapiens); assay: Displacement of [3H]-U69593 from human kappa opiod receptor expressed in CHO cells at 1 uM incubated for 60 mins by liquid scintillation counting method relative to control; type: cell-based
reported.metric: inhibition (%)

Guide cases for inhibition, answers given:
O=c1[nH]oc2c(F)c(Oc3ccc(CN4CCCC4c4cccc(Cl)c4)cc3)ccc12 (stereo not given) : 20
COc1cccc(C2CCCN2Cc2ccc(Oc3ccc4c(=O)[nH]oc4c3F)cc2)c1 (stereo not given) : 9.7
COc1ccc(C2CCCN2Cc2ccc(Oc3ccc(C(=O)NO)cc3F)cc2)cc1 (stereo not given) : 34.9

(A) COc1cc(CN2CCCC2c2cc(C)cc(C)c2)ccc1Oc1ccc2c(=O)[nH]oc2c1 (stereo not given)
(B) Cc1cc(C)cc(C2CCCN2Cc2ccc(Oc3ccc4c(=O)[nH]oc4c3)c(Cl)c2)c1 (stereo not given)
(C) Cc1cc(C)cc(C2CCCN2Cc2ccc(Oc3ccc4c(=O)[nH]oc4c3)cc2)c1 (stereo not given)
Request: Sort the 3 compounds by inhibition; largest first, smallest last. Please express your ranking as an ordered list of the labels.
Result: C, A, B

(1) Cc1cc(C)cc(C2CCCN2Cc2ccc(Oc3ccc4c(=O)[nH]oc4c3)c(F)c2)c1 (stereo not given)
(2) O=c1[nH]oc2c(F)c(Oc3ccc(CN4CCCC4c4cccc(F)c4)cc3)ccc12 (stereo not given)
Request: Determine, for 1 and 2 , which has the greater value of inhibition. Answer = label.
Result: 1
(1: 37.2%, 2: 0%)

(a) O=C(NO)c1ccc(Oc2ccc(CN3CCCC3c3ccccc3)cc2)cc1 (stereo not given)
(b) O=C(NO)c1ccc(Oc2ccc(CN3CCCC3c3cccc(Cl)c3)cc2)c(F)c1 (stereo not given)
Request: Determine, for a and b , which has the greater value of inhibition. Answer = label.
Result: a

###

target: Kappa-type opioid receptor (Homo sapiens, UniProt P41145); assay: Displacement of [3H]-U69593 from human kappa opiod receptor expressed in CHO cells at 1 uM incubated for 60 mins by liquid scintillation counting method relative to control; assay type: cell-based
Sequence (P41145 whole entry): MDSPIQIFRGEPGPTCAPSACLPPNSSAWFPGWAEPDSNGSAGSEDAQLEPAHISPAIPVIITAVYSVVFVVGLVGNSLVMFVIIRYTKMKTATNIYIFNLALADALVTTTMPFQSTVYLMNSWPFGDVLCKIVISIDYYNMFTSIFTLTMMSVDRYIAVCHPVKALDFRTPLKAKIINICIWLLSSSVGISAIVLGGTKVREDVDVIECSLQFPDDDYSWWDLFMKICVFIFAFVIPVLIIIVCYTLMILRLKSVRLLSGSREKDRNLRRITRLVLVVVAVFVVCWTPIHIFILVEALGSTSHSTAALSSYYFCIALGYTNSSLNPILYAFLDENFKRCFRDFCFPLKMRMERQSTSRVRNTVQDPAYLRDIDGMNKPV
reported.metric: inhibition (%)

Guide cases for inhibition, answers given:
O=C(NO)c1ccc(Oc2ccc(CN3CCCC3c3ccc(Cl)cc3)cc2)c(F)c1 (centres undefined) : 46.1
Cc1cc(C)cc(C2CCCN2Cc2ccc(Oc3ccc4c(=O)[nH]oc4c3F)c(F)c2)c1 (centres undefined) : 26.7
O=c1[nH]oc2c(F)c(Oc3ccc(CN4CCCC4c4ccc(Cl)cc4)cc3)ccc12 (centres undefined) : 0
O=c1[nH]oc2c(Cl)c(Oc3ccc(CN4CCCC4c4cccc(Cl)c4)cc3)ccc12 (centres undefined) : 0
COc1ccc(C2CCCN2Cc2ccc(Oc3ccc4c(=O)[nH]oc4c3F)cc2)cc1 (centres undefined) : 0
COc1cccc(C2CCCN2Cc2ccc(Oc3ccc4c(=O)[nH]oc4c3Cl)cc2)c1 (centres undefined) : 0

(a) Cc1cc(C)cc(C2CCCN2Cc2ccc(Oc3ccc4c(=O)[nH]oc4c3Cl)cc2)c1 (centres undefined)
(b) COc1ccc(C2CCCN2Cc2ccc(Oc3ccc4c(=O)[nH]oc4c3)cc2)cc1 (centres undefined)
(c) COc1cccc(C2CCCN2Cc2ccc(Oc3ccc(C(=O)NO)cc3)cc2)c1 (centres undefined)
Request: Ordering: ascending inhibition. Please express your ranking as an ordered list of the labels.
Result: a, c, b

###

target: Mu-type opioid receptor (Homo sapiens); experiment: Displacement of [3H]-DAMGO from human mu opiod receptor expressed in CHO cells at 10 uM incubated for 60 mins by liquid scintillation counting method relative to control; type: cell-based
reported.metric: inhibition (%)

Guide cases for inhibition, answers given:
Cc1cc(C)cc(C2CCCN2Cc2ccc(Oc3ccc4c(=O)[nH]oc4c3)cc2)c1 (stereo not given) : 74
Cc1cc(C)cc(C2CCCN2Cc2ccc(Oc3ccc4c(=O)[nH]oc4c3F)c(F)c2)c1 (stereo not given) : 37.3

(I) COc1ccc(C2CCCN2Cc2ccc(Oc3ccc(C(=O)NO)cc3)cc2)cc1 (stereo not given)
(II) COc1cc(CN2CCCC2c2cc(C)cc(C)c2)ccc1Oc1ccc2c(=O)[nH]oc2c1 (stereo not given)
Request: Determine, for I and II , which has the greater value of inhibition. Answer = label.
Result: II
(II: 59.2%, I: 40.4%)

###

target: Kappa-type opioid receptor (Homo sapiens, UniProt P41145); assay: Displacement of [3H]-U69593 from human kappa opiod receptor expressed in CHO cells at 1 uM incubated for 60 mins by liquid scintillation counting method relative to control; type: cell-based
reported.metric: inhibition (%)

(I) O=c1[nH]oc2cc(Oc3ccc(CN4CCCC4c4ccc(Cl)cc4)cc3)ccc12 (stereo not given)
(II) O=c1[nH]oc2c(Cl)c(Oc3ccc(CN4CCCC4c4ccc(Cl)cc4)cc3)ccc12 (stereo not given)
Request: Between I and II , which one shows the smaller inhibition number? Answer = label.
Result: II
(II: 0%, I: 57.6%)

(1) COc1cccc(C2CCCN2Cc2ccc(Oc3ccc(C(=O)NO)cc3F)cc2)c1 (stereo not given)
(2) COc1ccc(C2CCCN2Cc2ccc(Oc3ccc4c(=O)[nH]oc4c3Cl)cc2)cc1 (stereo not given)
Request: Between 1 and 2 , which one shows the smaller inhibition number? Answer = label.
Result: 2

###

target: Mu-type opioid receptor (Homo sapiens, UniProt P35372); assay: Displacement of [3H]-DAMGO from human mu opiod receptor expressed in CHO cells at 10 uM incubated for 60 mins by liquid scintillation counting method relative to control; type: cell-based
Sequence (P35372 whole entry): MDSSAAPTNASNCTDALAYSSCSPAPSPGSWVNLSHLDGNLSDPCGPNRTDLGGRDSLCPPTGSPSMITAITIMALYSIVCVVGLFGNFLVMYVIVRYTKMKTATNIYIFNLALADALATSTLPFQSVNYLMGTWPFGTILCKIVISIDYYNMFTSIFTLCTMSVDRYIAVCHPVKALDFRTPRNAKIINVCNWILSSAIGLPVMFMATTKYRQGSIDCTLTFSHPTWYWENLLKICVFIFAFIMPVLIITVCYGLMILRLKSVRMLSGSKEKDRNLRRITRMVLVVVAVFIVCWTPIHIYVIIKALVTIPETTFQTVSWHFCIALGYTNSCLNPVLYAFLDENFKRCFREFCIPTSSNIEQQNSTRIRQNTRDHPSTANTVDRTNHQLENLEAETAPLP
reported.metric: inhibition (%)

Guide cases for inhibition, answers given:
Cc1cc(C)cc(C2CCCN2Cc2ccc(Oc3ccc(C(=O)NO)cc3)cc2)c1 (stereo not given) : 36
Cc1cc(C)cc(C2CCCN2Cc2ccc(Oc3ccc4c(=O)[nH]oc4c3)c(Cl)c2)c1 (stereo not given) : 9.8
O=c1[nH]oc2c(F)c(Oc3ccc(CN4CCCC4c4ccc(Cl)cc4)cc3)ccc12 (stereo not given) : 35.8

(P) O=C(NO)c1ccc(Oc2ccc(CN3CCCC3c3cccc(F)c3)cc2)c(F)c1 (stereo not given)
(Q) O=c1[nH]oc2c(Cl)c(Oc3ccc(CN4CCCC4c4cccc(F)c4)cc3)ccc12 (stereo not given)
(R) O=c1[nH]oc2c(Cl)c(Oc3ccc(CN4CCCC4c4ccc(Cl)cc4)cc3)ccc12 (stereo not given)
(S) Cc1cc(C)cc(C2CCCN2Cc2ccc(Oc3ccc4c(=O)[nH]oc4c3F)cc2)c1 (stereo not given)
Request: Ordering: ascending inhibition. Please express your ranking as an ordered list of the labels.
Result: Q, S, R, P
(Q: 0%, S: 21.1%, R: 41.1%, P: 73.2%)

(I) COc1cccc(C2CCCN2Cc2ccc(Oc3ccc4c(=O)[nH]oc4c3Cl)cc2)c1 (stereo not given)
(II) O=c1[nH]oc2c(Cl)c(Oc3ccc(CN4CCCC4c4cccc(Cl)c4)cc3)ccc12 (stereo not given)
Request: Between I and II , which one shows the smaller inhibition number? Answer = label.
Result: I
(I: 0%, II: 32.5%)

(a) O=C(NO)c1ccc(Oc2ccc(CN3CCCC3c3ccc(Cl)cc3)cc2)c(F)c1 (stereo not given)
(b) Cc1cc(C)cc(C2CCCN2Cc2ccc(Oc3ccc(C(N)=O)cc3F)cc2)c1 (racemic)
(c) O=c1[nH]oc2cc(Oc3ccc(CN4CCCC4c4ccc(Cl)cc4)cc3)ccc12 (stereo not given)
Request: Sort the 3 molecules by inhibition; largest first, smallest last. Please express your ranking as an ordered list of the labels.
Result: b, c, a
(b: 87.2%, c: 54.5%, a: 25.8%)

###

molecular target: Delta-type opioid receptor (Homo sapiens); assay: Displacement of [3H]-DPDPE from human delta opiod receptor expressed in human HEK293 cells at 1 uM incubated for 60 mins by liquid scintillation counting method relative to control; format: cell-based
reported.metric: inhibition (%)

O=c1[nH]oc2c(F)c(Oc3ccc(CN4CCCC4c4cccc(Cl)c4)cc3)ccc12 (stereo not given) : 0
COc1cccc(C2CCCN2Cc2ccc(Oc3ccc(C(=O)NO)cc3)cc2)c1 (stereo not given) : 0
O=c1[nH]oc2c(F)c(Oc3ccc(CN4CCCC4c4cccc(F)c4)cc3)ccc12 (stereo not given) : 20.7

(P) COc1ccc(C2CCCN2Cc2ccc(Oc3ccc(C(=O)NO)cc3F)cc2)cc1 (stereo not given)
(Q) COc1cccc(C2CCCN2Cc2ccc(Oc3ccc4c(=O)[nH]oc4c3F)cc2)c1 (stereo not given)
Request: Between P and Q , which one shows the smaller inhibition number? Answer = label.
Result: Q
(Q: 0%, P: 6.2%)

###

target: Delta-type opioid receptor (Homo sapiens, UniProt P41143); test: Displacement of [3H]-DPDPE from human delta opiod receptor expressed in human HEK293 cells at 10 uM incubated for 60 mins by liquid scintillation counting method relative to control; assay type: cell-based
Sequence (P41143 whole entry): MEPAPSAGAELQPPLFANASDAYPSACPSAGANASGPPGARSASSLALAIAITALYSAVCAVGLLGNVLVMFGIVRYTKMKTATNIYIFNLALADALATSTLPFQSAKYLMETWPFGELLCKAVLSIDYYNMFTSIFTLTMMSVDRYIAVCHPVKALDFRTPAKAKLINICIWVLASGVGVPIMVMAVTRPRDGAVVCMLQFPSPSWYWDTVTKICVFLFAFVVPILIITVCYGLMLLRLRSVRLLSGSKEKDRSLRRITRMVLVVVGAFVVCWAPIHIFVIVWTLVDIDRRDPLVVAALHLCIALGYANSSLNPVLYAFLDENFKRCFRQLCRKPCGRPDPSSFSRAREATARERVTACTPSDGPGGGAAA
reported.metric: inhibition (%)

Cc1cc(C)cc(C2CCCN2Cc2ccc(Oc3ccc4c(=O)[nH]oc4c3)c(Cl)c2)c1 (stereo not given) : 16.9
COc1cccc(C2CCCN2Cc2ccc(Oc3ccc4c(=O)[nH]oc4c3F)cc2)c1 (stereo not given) : 28.4
COc1ccc(C2CCCN2Cc2ccc(Oc3ccc(C(=O)NO)cc3)cc2)cc1 (stereo not given) : 24.4
COc1ccc(C2CCCN2Cc2ccc(Oc3ccc4c(=O)[nH]oc4c3Cl)cc2)cc1 (stereo not given) : 39.3
O=c1[nH]oc2cc(Oc3ccc(CN4CCCC4c4ccc(Cl)cc4)cc3)ccc12 (stereo not given) : 35.9
COc1cc(CN2CCCC2c2cc(C)cc(C)c2)ccc1Oc1ccc2c(=O)[nH]oc2c1 (stereo not given) : 49.1

(A) Cc1cc(C)cc(C2CCCN2Cc2ccc(Oc3ccc4c(=O)[nH]oc4c3F)c(Cl)c2)c1 (stereo not given)
(B) COc1cccc(C2CCCN2Cc2ccc(Oc3ccc4c(=O)[nH]oc4c3Cl)cc2)c1 (stereo not given)
(C) COc1ccc(C2CCCN2Cc2ccc(Oc3ccc(C(=O)NO)cc3F)cc2)cc1 (stereo not given)
Request: Ordering: ascending inhibition. Please express your ranking as an ordered list of the labels.
Result: C, A, B
(C: 15.8%, A: 32.9%, B: 60.6%)

(1) Cc1cc(C)cc(C2CCCN2Cc2ccc(Oc3ccc4c(=O)[nH]oc4c3F)cc2)c1 (stereo not given)
(2) O=C(NO)c1ccc(Oc2ccc(CN3CCCC3c3ccccc3)cc2)cc1 (stereo not given)
Request: Between 1 and 2 , which one shows the smaller inhibition number? Answer = label.
Result: 2
(2: 13.8%, 1: 33.3%)
